organism: Rattus norvegicus; test: Open TG-GATES - Regimen: Daily Repeat; assay type: toxicity, organism-based, Sprague-Dawley; set-up: regimen Daily Repeat, gender Male, age 6 weeks; settings: in vivo, po, 100 mg/kg, […], tissue Plasma, route gavage, dose level Low, time 7 day
measurement-type: Na (meq/L)

- smi: "CN/C(=N/CCSCc1nc[nH]c1C)NC#N"
  measurement-type: "Na"
  measured-number: 139.6
- smi: "CCOc1ccc(NC(C)=O)cc1"
  measurement-type: "Na"
  measured-number: 143.4
- smi: "O=C(OC[C@H]1O[C@@H](OC(=O)c2cc(O)c(O)c(OC(=O)c3cc(O)c(O)c(O)c3)c2)[C@H](OC(=O)c2cc(O)c(O)c(OC(=O)c3cc(O)c(O)c(O)c3)c2)[C@@H](OC(=O)c2cc(O)c(O)c(OC(=O)c3cc(O)c(O)c(O)c3)c2)[C@@H]1OC(=O)c1cc(O)c(O)c(OC(=O)c2cc(O)c(O)c(O)c2)c1)c1cc(O)c(O)c(OC(=O)c2cc(O)c(O)c(O)c2)c1"
  measurement-type: "Na"
  measured-number: 138
- smi: "Cc1nnc2n1-c1ccc(Cl)cc1C(c1ccccc1Cl)=NC2"
  measurement-type: "Na"
  measured-number: 141.4
- smi: "CNC(=C[N+](=O)[O-])NCCSCc1ccc(CN(C)C)o1"
  measurement-type: "Na"
  measured-number: 139.6
- smi: "COC(=O)C1=C(C)NC(C)=C(C(=O)OC)C1c1ccccc1[N+](=O)[O-]"
  measurement-type: "Na"
  measured-number: 143.8

----------
organism: Rattus norvegicus; experiment: Open TG-GATES - Regimen: Single; assay type: toxicity, organism-based, Sprague-Dawley; parameters: regimen Single, gender Male, age 6 weeks; details: in vivo, po, 0 mg/kg, 9 h, tissue Plasma, route gavage, dose level Control
Criterion: IP strictly under 10 mg/dL. Met: t. Not met: f.

- compound: "Cc1nnc2n1-c1ccc(Cl)cc1C(c1ccccc1Cl)=NC2"
  class-name: "f"
- compound: "CN1C(=O)CCS(=O)(=O)C1c1ccc(Cl)cc1 (configuration not stated)"
  class-name: "f"
- compound: "Brc1ccccc1"
  class-name: "f"
- compound: "CN(C)CCC(c1ccc(Cl)cc1)c1ccccn1 (configuration not stated)"
  class-name: "f"
- compound: "CCCc1cc(=O)[nH]c(=S)[nH]1"
  class-name: "f"
- compound: "CS(=O)(=O)O.Cc1ccc(NC(=O)c2ccc(CN3CCN(C)CC3)cc2)cc1Nc1nccc(-c2cccnc2)n1 [IMATINIB MESYLATE]"
  class-name: "t"
- compound: "CNC(=C[N+](=O)[O-])NCCSCc1ccc(CN(C)C)o1"
  class-name: "t"
- compound: "NC1=NC(=O)C(c2ccccc2)O1 (configuration not stated)"
  class-name: "f"

----------
species on record: Rattus norvegicus; assay: Open TG-GATES - Regimen: Single; type: toxicity, organism-based, Sprague-Dawley; set-up: regimen Single, gender Male, age 6 weeks; conditions: in vivo, po, 300 mg/kg, 6 h, tissue Blood, route gavage, dose level Middle
measurement-type: WBC (x10_2/uL)

- compound: "CN/C(=N/CCSCc1nc[nH]c1C)NC#N [CIMETIDINE]"
  measurement-type: "WBC"
  measured-number: 100.3
- compound: "CNC(=C[N+](=O)[O-])NCCSCc1ccc(CN(C)C)o1 [RANITIDINE]"
  measurement-type: "WBC"
  measured-number: 82.1
- compound: "Cc1nnc2n1-c1ccc(Cl)cc1C(c1ccccc1Cl)=NC2 [TRIAZOLAM]"
  measurement-type: "WBC"
  measured-number: 77.5
- compound: "COC(=O)C1=C(C)NC(C)=C(C(=O)OC)C1c1ccccc1[N+](=O)[O-] [NIFEDIPINE]"
  measurement-type: "WBC"
  measured-number: 101.9
- compound: "O=C(OC[C@H]1O[C@@H](OC(=O)c2cc(O)c(O)c(OC(=O)c3cc(O)c(O)c(O)c3)c2)[C@H](OC(=O)c2cc(O)c(O)c(OC(=O)c3cc(O)c(O)c(O)c3)c2)[C@@H](OC(=O)c2cc(O)c(O)c(OC(=O)c3cc(O)c(O)c(O)c3)c2)[C@@H]1OC(=O)c1cc(O)c(O)c(OC(=O)c2cc(O)c(O)c(O)c2)c1)c1cc(O)c(O)c(OC(=O)c2cc(O)c(O)c(O)c2)c1 [TANNIC ACID]"
  measurement-type: "WBC"
  measured-number: 93

----------
// values below are reported Ht
species: Rattus norvegicus; experiment: Open TG-GATES - Regimen: Daily Repeat; format: toxicity, organism-based, Sprague-Dawley; parameters: regimen Daily Repeat, gender Male, age 6 weeks; details: in vivo, po, 100 mg/kg, […], tissue Blood, route gavage, dose level Low, time 7 day

- molecule: "O=C(OC[C@H]1O[C@@H](OC(=O)c2cc(O)c(O)c(OC(=O)c3cc(O)c(O)c(O)c3)c2)[C@H](OC(=O)c2cc(O)c(O)c(OC(=O)c3cc(O)c(O)c(O)c3)c2)[C@@H](OC(=O)c2cc(O)c(O)c(OC(=O)c3cc(O)c(O)c(O)c3)c2)[C@@H]1OC(=O)c1cc(O)c(O)c(OC(=O)c2cc(O)c(O)c(O)c2)c1)c1cc(O)c(O)c(OC(=O)c2cc(O)c(O)c(O)c2)c1 [TANNIC ACID]"
  Ht / %: 40.3
- molecule: "CCOc1ccc(NC(C)=O)cc1 [PHENACETIN]"
  Ht / %: 42
- molecule: "Cc1nnc2n1-c1ccc(Cl)cc1C(c1ccccc1Cl)=NC2 [TRIAZOLAM]"
  Ht / %: 41.6
- molecule: "CNC(=C[N+](=O)[O-])NCCSCc1ccc(CN(C)C)o1 [RANITIDINE]"
  Ht / %: 39.9
- molecule: "CN/C(=N/CCSCc1nc[nH]c1C)NC#N [CIMETIDINE]"
  Ht / %: 40.3
- molecule: "COC(=O)C1=C(C)NC(C)=C(C(=O)OC)C1c1ccccc1[N+](=O)[O-] [NIFEDIPINE]"
  Ht / %: 42.1

----------
// values below are reported IP
species on record: Rattus norvegicus; test: Open TG-GATES - Regimen: Daily Repeat; format: toxicity, organism-based, Sprague-Dawley; set-up: regimen Daily Repeat, gender Male, age 6 weeks; conditions: in vivo, po, 0 mg/kg, […], tissue Plasma, route gavage, dose level Control, time 28 day
measurement-type: IP (mg/dL)

- compound: "CCCc1cc(=O)[nH]c(=S)[nH]1"
  measured-number: 6.7
- compound: "CCOc1ccc(NC(C)=O)cc1"
  measured-number: 6
- compound: "CC(C)NNC(=O)c1ccncc1"
  measured-number: 6.6
- compound: "CN(C)CCC(c1ccc(Cl)cc1)c1ccccn1 (stereo unspecified)"
  measured-number: 6.3
- compound: "Nc1c2c(nc3ccccc13)CCCC2"
  measured-number: 5.9
- compound: "NC1=NC(=O)C(c2ccccc2)O1 (stereo unspecified)"
  measured-number: 6.9

----------
species on record: Rattus norvegicus; assay: Open TG-GATES - Regimen: Daily Repeat; assay type: toxicity, organism-based, Sprague-Dawley; design: regimen Daily Repeat, gender Male, age 6 weeks; settings: in vivo, po, 0 mg/kg, 72 h, tissue Blood, route gavage, dose level Control, time 3 day

- molecule: "CN1C(=O)CCS(=O)(=O)C1c1ccc(Cl)cc1 (stereo not drawn)"
  PT [s]: 12
- molecule: "NC1=NC(=O)C(c2ccccc2)O1 (stereo not drawn)"
  PT [s]: 12.8
- molecule: "Brc1ccccc1"
  PT [s]: 12
- molecule: "CCCc1cc(=O)[nH]c(=S)[nH]1"
  PT [s]: 12
- molecule: "COC(=O)C1=C(C)NC(C)=C(C(=O)OC)C1c1ccccc1[N+](=O)[O-]"
  PT [s]: 14.5
- molecule: "CNC(=C[N+](=O)[O-])NCCSCc1ccc(CN(C)C)o1"
  PT [s]: 11.9
- molecule: "O=C(OC[C@H]1O[C@@H](OC(=O)c2cc(O)c(O)c(OC(=O)c3cc(O)c(O)c(O)c3)c2)[C@H](OC(=O)c2cc(O)c(O)c(OC(=O)c3cc(O)c(O)c(O)c3)c2)[C@@H](OC(=O)c2cc(O)c(O)c(OC(=O)c3cc(O)c(O)c(O)c3)c2)[C@@H]1OC(=O)c1cc(O)c(O)c(OC(=O)c2cc(O)c(O)c(O)c2)c1)c1cc(O)c(O)c(OC(=O)c2cc(O)c(O)c(O)c2)c1"
  PT [s]: 11.7
- molecule: "CN(C)CCC(c1ccc(Cl)cc1)c1ccccn1 (stereo not drawn)"
  PT [s]: 14.5

----------
species: Rattus norvegicus; test: Open TG-GATES - Regimen: Daily Repeat; type: toxicity, organism-based, Sprague-Dawley; set-up: regimen Daily Repeat, gender Male, age 6 weeks; conditions: in vivo, po, 1000 mg/kg, […], tissue Liver, route gavage, dose level High, time 14 day

- compound: "COC(=O)C1=C(C)NC(C)=C(C(=O)OC)C1c1ccccc1[N+](=O)[O-] [NIFEDIPINE]"
  unit-spec: "g"
  LIVER: 15.5
- compound: "Cc1nnc2n1-c1ccc(Cl)cc1C(c1ccccc1Cl)=NC2 [TRIAZOLAM]"
  unit-spec: "g"
  LIVER: 14.2
- compound: "CN/C(=N/CCSCc1nc[nH]c1C)NC#N [CIMETIDINE]"
  unit-spec: "g"
  LIVER: 14.1
- compound: "CCOc1ccc(NC(C)=O)cc1 [PHENACETIN]"
  unit-spec: "g"
  LIVER: 13.2
- compound: "O=C(OC[C@H]1O[C@@H](OC(=O)c2cc(O)c(O)c(OC(=O)c3cc(O)c(O)c(O)c3)c2)[C@H](OC(=O)c2cc(O)c(O)c(OC(=O)c3cc(O)c(O)c(O)c3)c2)[C@@H](OC(=O)c2cc(O)c(O)c(OC(=O)c3cc(O)c(O)c(O)c3)c2)[C@@H]1OC(=O)c1cc(O)c(O)c(OC(=O)c2cc(O)c(O)c(O)c2)c1)c1cc(O)c(O)c(OC(=O)c2cc(O)c(O)c(O)c2)c1 [TANNIC ACID]"
  unit-spec: "g"
  LIVER: 12.9
- compound: "CNC(=C[N+](=O)[O-])NCCSCc1ccc(CN(C)C)o1 [RANITIDINE]"
  unit-spec: "g"
  LIVER: 14.2

These data points were gathered from ChEMBL document CHEMBL3885861.
